experiment: accelerated stability test (sealed vial, 30° C., HPLC content and related substances); type: physicochemical; conditions: month 0
assay.readout: Assay (%)
Just the number please, in %, no unit attached.

Challenge: GET /values?readout=Assay (%)&item= CC[C@H]1OC(=O)[C@H](C)[C@@H](O[C@H]2C[C@@](C)(OC)[C@@H](O)[C@H](C)O2)[C@H](C)[C@@H](O[C@@H]2O[C@H](C)C[C@H](N(C)C)[C@H]2O)[C@](C)(O)C[C@@H](C)C(=O)[C@H](C)[C@@H](O)[C@]1(C)O.N#CS.O.O [erythromycin thiocyanate dihydrate]
Response given: 99.9

###

assay: accelerated stability test (sealed vial, 30° C., HPLC content and related substances); type: physicochemical; conditions: month 2
assay.readout: Assay (%)
// note: answer is a bare numeric in %

Known Assay (%) results, listed for orientation:
| compound | u | Assay (%) |
| --- | --- | --- |
| CC[C@H]1OC(=O)[C@H](C)[C@@H](O[C@H]2C[C@@](C)(OC)[C@@H](O)[C@H](C)O2)[C@H](C)[C@@H](O[C@@H]2O[C@H](C)C[C@H](N(C)C)[C@H]2O)[C@](C)(O)C[C@@H](C)C(=O)[C@H](C)[C@@H](O)[C@]1(C)O.O.O.O.O.O.O=C(O)[C@H](O)[C@@H](O)[C@H](O[C@@H]1O[C@H](CO)[C@H](O)[C@H](O)[C@H]1O)[C@H](O)CO [erythromycin lactobionate pentahydrate] | % | 99.8 |
| CC[C@H]1OC(=O)[C@H](C)[C@@H](O[C@H]2C[C@@](C)(OC)[C@@H](O)[C@H](C)O2)[C@H](C)[C@@H](O[C@@H]2O[C@H](C)C[C@H](N(C)C)[C@H]2O)[C@](C)(O)C[C@@H](C)C(=O)[C@H](C)[C@@H](O)[C@]1(C)O.O.O.O.O.O.O.O=C(O)[C@H](O)[C@@H](O)[C@H](O[C@@H]1O[C@H](CO)[C@H](O)[C@H](O)[C@H]1O)[C@H](O)CO [erythromycin lactobionate hexahydrate] | % | 100.2 |
| CC[C@H]1OC(=O)[C@H](C)[C@@H](O[C@H]2C[C@@](C)(OC)[C@@H](O)[C@H](C)O2)[C@H](C)[C@@H](O[C@@H]2O[C@H](C)C[C@H](N(C)C)[C@H]2O)[C@](C)(O)C[C@@H](C)C(=O)[C@H](C)[C@@H](O)[C@]1(C)O [erythromycin lactobionate trihydrate] | % | 99.8 |

Challenge: Using the record for CC[C@H]1OC(=O)[C@H](C)[C@@H](O[C@H]2C[C@@](C)(OC)[C@@H](O)[C@H](C)O2)[C@H](C)[C@@H](O[C@@H]2O[C@H](C)C[C@H](N(C)C)[C@H]2O)[C@](C)(O)C[C@@H](C)C(=O)[C@H](C)[C@@H](O)[C@]1(C)O.N#CS.O.O.O [erythromycin thiocyanate trihydrate] , report its Assay (%).
Response given: 100.6

Challenge: For the compound shown here, CC[C@H]1OC(=O)[C@H](C)[C@@H](O[C@H]2C[C@@](C)(OC)[C@@H](O)[C@H](C)O2)[C@H](C)[C@@H](O[C@@H]2O[C@H](C)C[C@H](N(C)C)[C@H]2O)[C@](C)(O)C[C@@H](C)C(=O)[C@H](C)[C@@H](O)[C@]1(C)O.N#CS.O.O [erythromycin thiocyanate dihydrate] , give the reported Assay (%).
Response given: 100.4

Value source: patent US8470787B2
